TARGET_SYSTEM: gamma-secretase (partially purified extract of IMR-32 cell membranes; substrate MBP-C125 Swe fusion protein, cleavage at the Aβ40 site) (Homo sapiens, UniProt P49768)
Construct: a partially purified extract of IMR-32 cell membranes as the gamma-secretase enzyme preparation; endogenous in cells; host or cells: IMR-32 cell membranes, partially purified extract
ASSAY_NOTES: Gamma-secretase APP enzyme assay (Example A)
Format: biochemical
RUN_PARAMETERS: class symbols; assay described in Example A; read-out: γAPP IC50
pIC50: −log10 of the molar value.
ASSAY_METRIC: pIC50

[
  {
    "COMPOUND": "O=S(=O)(c1ccc(C(F)(F)F)nc1)N1C2c3cn[nH]c3C(F)(F)C1c1c(F)cccc12 (stereo not drawn) [compound 215]",
    "ASSAY_METRIC": "pIC50",
    "REPORTED_MEASUREMENT": "> 7.00"
  },
  {
    "COMPOUND": "O=C1CCN1c1ccc(C2CC3Cc4[nH]ncc4C(C2)N3S(=O)(=O)c2ccc(C(F)(F)F)cc2)cc1 (racemic) [compound 153]",
    "ASSAY_METRIC": "pIC50",
    "REPORTED_MEASUREMENT": "> 7.00"
  },
  {
    "COMPOUND": "O=C1c2[nH]ncc2C2c3c(F)cccc3C1N2S(=O)(=O)c1ccc(Cl)cc1 (stereo not drawn) [compound 243]",
    "ASSAY_METRIC": "pIC50",
    "REPORTED_MEASUREMENT": "6.30 to 7.00"
  },
  {
    "COMPOUND": "O=S(=O)(c1ccc(C(F)(F)F)cc1)N1C2Cc3[nH]ncc3C1c1ccccc12 (stereo not drawn) [compound 72]",
    "ASSAY_METRIC": "pIC50",
    "REPORTED_MEASUREMENT": "< 6.00"
  },
  {
    "COMPOUND": "O=S(=O)(c1ccc(C(F)(F)F)cc1)N1C2c3cc(F)c(F)cc3C1C(F)(F)c1n[nH]cc12 (stereo not drawn) [compound 77]",
    "ASSAY_METRIC": "pIC50",
    "REPORTED_MEASUREMENT": "> 7.00"
  },
  {
    "COMPOUND": "O=C1c2[nH]ncc2C2c3c(F)cccc3C1N2S(=O)(=O)c1ccc(Cl)cc1 (stereo not drawn) [compound 236]",
    "ASSAY_METRIC": "pIC50",
    "REPORTED_MEASUREMENT": "> 7.00"
  },
  {
    "COMPOUND": "O=S(=O)(c1ccc(C(F)(F)F)cc1)N1C2C=C(c3ccc(F)cc3)C1c1cn[nH]c1C2 (racemic) [compound 59]",
    "ASSAY_METRIC": "pIC50",
    "REPORTED_MEASUREMENT": "6.30 to 7.00"
  },
  {
    "COMPOUND": "O=S(=O)(c1ccc(Cl)cc1)N1C2Cc3[nH]ncc3C1c1c(F)cccc12 (racemic) [compound 209]",
    "ASSAY_METRIC": "pIC50",
    "REPORTED_MEASUREMENT": "> 7.00"
  },
  {
    "COMPOUND": "O=S(=O)(c1ccc(Cl)cc1)N1C2Cc3[nH]ncc3C1c1c(F)cccc12 (single isomer, unassigned) [compound 231]",
    "ASSAY_METRIC": "pIC50",
    "REPORTED_MEASUREMENT": "> 7.00"
  },
  {
    "COMPOUND": "Cn1cc(C2CC3Cc4[nH]ncc4C(C2)N3S(=O)(=O)c2ccc(Cl)cc2)nn1 (single isomer, unassigned) [compound 138]",
    "ASSAY_METRIC": "pIC50",
    "REPORTED_MEASUREMENT": "6.00 to 6.30"
  },
  {
    "COMPOUND": "O=S(=O)(c1ccc(C(F)(F)F)cc1)N1C2c3c[nH]nc3C(F)(F)C1c1cccc(F)c12 (stereo not drawn) [compound 123]",
    "ASSAY_METRIC": "pIC50",
    "REPORTED_MEASUREMENT": "> 7.00"
  },
  {
    "COMPOUND": "O=S(=O)(c1ccc(C(F)(F)F)cc1)N1C2Cc3[nH]ncc3C1c1ccc(C(F)(F)F)cc12 (racemic) [compound 156]",
    "ASSAY_METRIC": "pIC50",
    "REPORTED_MEASUREMENT": "> 7.00"
  },
  {
    "COMPOUND": "O=S(=O)(c1ccc(C(F)(F)F)nc1)N1C2Cc3[nH]ncc3C1c1cc(Cl)ccc12 (stereo not drawn) [compound 221]",
    "ASSAY_METRIC": "pIC50",
    "REPORTED_MEASUREMENT": "6.30 to 7.00"
  },
  {
    "COMPOUND": "Cc1noc(-c2cccc3c2C2Cc4[nH]ncc4C3N2S(=O)(=O)c2ccc(C(F)(F)F)nc2)n1 (stereo not drawn) [compound 235]",
    "ASSAY_METRIC": "pIC50",
    "REPORTED_MEASUREMENT": "6.30 to 7.00"
  },
  {
    "COMPOUND": "O=S(=O)(c1ccc(C(F)(F)F)cc1)N1C2Cc3[nH]ncc3C1CC(c1ccc(-n3cccn3)cc1)C2 (stereo not drawn) [compound 124]",
    "ASSAY_METRIC": "pIC50",
    "REPORTED_MEASUREMENT": "> 7.00"
  }
]
